// data source = patent US12516056B2

STUDY SYSTEM: Recombinant JAK2 (Homo sapiens, UniProt O60674)
Construct: purchased Carna Biosciences
Sequence (O60674 whole entry): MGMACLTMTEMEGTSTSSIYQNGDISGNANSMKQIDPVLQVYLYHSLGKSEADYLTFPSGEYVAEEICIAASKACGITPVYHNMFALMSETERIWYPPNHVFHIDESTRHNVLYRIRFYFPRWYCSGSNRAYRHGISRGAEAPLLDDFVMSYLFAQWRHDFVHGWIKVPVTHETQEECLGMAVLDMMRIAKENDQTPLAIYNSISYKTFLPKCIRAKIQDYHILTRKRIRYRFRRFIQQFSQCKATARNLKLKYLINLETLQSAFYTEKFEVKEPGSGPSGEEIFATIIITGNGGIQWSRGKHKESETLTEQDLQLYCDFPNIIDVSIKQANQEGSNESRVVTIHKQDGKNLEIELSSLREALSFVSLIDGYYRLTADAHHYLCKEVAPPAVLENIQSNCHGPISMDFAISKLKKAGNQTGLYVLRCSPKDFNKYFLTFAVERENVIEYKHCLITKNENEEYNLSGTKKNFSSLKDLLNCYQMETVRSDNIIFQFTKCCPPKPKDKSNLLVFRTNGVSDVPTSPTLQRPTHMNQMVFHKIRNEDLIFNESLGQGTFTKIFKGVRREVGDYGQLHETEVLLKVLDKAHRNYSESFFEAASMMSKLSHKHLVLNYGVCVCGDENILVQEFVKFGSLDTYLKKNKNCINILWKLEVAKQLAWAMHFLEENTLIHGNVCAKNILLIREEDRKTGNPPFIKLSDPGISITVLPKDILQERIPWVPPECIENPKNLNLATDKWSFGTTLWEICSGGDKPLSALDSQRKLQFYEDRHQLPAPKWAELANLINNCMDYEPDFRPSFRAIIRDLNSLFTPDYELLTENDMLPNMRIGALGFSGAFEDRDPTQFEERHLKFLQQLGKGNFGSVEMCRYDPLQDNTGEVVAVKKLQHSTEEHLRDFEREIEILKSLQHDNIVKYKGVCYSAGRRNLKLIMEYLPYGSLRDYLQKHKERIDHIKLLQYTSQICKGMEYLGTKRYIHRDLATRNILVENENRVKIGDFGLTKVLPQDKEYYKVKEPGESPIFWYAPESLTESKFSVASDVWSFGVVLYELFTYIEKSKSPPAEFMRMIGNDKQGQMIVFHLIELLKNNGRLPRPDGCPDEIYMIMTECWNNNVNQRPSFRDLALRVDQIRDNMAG
ASSAY OVERVIEW: JAK biochemical assay (LANCE Ultra TR-FRET), JAK2
CONDITION NOTES: recombinant JAK2, TR-FRET; read-out: Biochemical Assay (μM) JAK2
Where a name gives a salt, the structure may show the parent alone.
EXPERIMENTAL ENDPOINT: IC50

Reference set (5 entries):
COMPOUND: CNCC[C@@H](c1ccc(-n2cc(-c3ccnc4[nH]cnc34)cn2)nc1)C(F)(F)F [Example 1217, TFA salt]
EXPERIMENTAL ENDPOINT: IC50
RESULT: 0.007 µM
//
COMPOUND: N#CCC(c1ccc(-n2cc(-c3ccnc4[nH]cnc34)cn2)nc1)C(F)(F)F (centres unmarked) [Example 1123]
EXPERIMENTAL ENDPOINT: IC50
RESULT: > 0.5 µM
//
COMPOUND: CC1(C)CN(C(=O)Nc2ccc(-c3ccnc4[nH]c(=O)[nH]c34)cc2)C1 [Example 1007]
EXPERIMENTAL ENDPOINT: IC50
RESULT: > 0.5 µM
//
COMPOUND: N#CCc1cccc(-n2cc(-c3ccnc4[nH]cnc34)cn2)c1 [Example 1106]
EXPERIMENTAL ENDPOINT: IC50
RESULT: < 0.5 µM
//
COMPOUND: CN1CC(C(O)(c2ccc(-n3cc(-c4ccnc5[nH]cnc45)cn3)nc2)C(F)(F)F)C1 (centres unmarked) [Example 1231]
EXPERIMENTAL ENDPOINT: IC50
RESULT: 0.005 µM

Query: Give the measured IC50 of CS(=O)(=O)CCC(c1ccnc(-n2cc(-c3ccnc4[nH]cnc34)cn2)c1)C(F)(F)F (centres unmarked) [Example 1176] .
Response: > 1 µM

Query: // repeat for N#CCC(NC(=O)n1cc(-c2ccnc3[nH]c(=O)[nH]c23)cn1)C1CCCC1 (centres unmarked) [Example 1039] and report
Response: < 0.5 µM

Query: // repeat for O=C(NCC(F)(F)F)n1cc(-c2ccnc3[nH]cnc23)cn1 [Example 1064] and report
Response: < 0.5 µM

----------
STUDY SYSTEM: Recombinant JAK2 (Homo sapiens, UniProt O60674)
Construct: purchased Carna Biosciences
ASSAY OVERVIEW: JAK biochemical assay (LANCE Ultra TR-FRET), JAK2
CONDITION NOTES: recombinant JAK2, TR-FRET; read-out: Biochemical Assay (μM) JAK2
The following compounds are listed with their measured IC50 values.

COMPOUND: CS(=O)(=O)NCCC(c1ccc(-n2cc(-c3ccnc4[nH]cnc34)cn2)nc1)C(F)(F)F (centres unmarked) [Example 1143]
EXPERIMENTAL ENDPOINT: IC50
RESULT: < 0.1 µM
--
COMPOUND: O=C(NCCC(c1ccc(-n2cc(-c3ccnc4[nH]cnc34)cn2)nc1)C(F)(F)F)C1CCCC1 (centres unmarked) [Example 1151]
EXPERIMENTAL ENDPOINT: IC50
RESULT: > 0.1 µM
--
COMPOUND: CC(c1ccc(-n2cc(-c3ccnc4[nH]cnc34)cn2)nc1)S(C)(=O)=O (centres unmarked) [Example 1158]
EXPERIMENTAL ENDPOINT: IC50
RESULT: > 0.1 µM

Query: Param readout= IC50; system= Recombinant JAK2 (Homo sapiens, UniProt O60674); entry= N#CC(NC(=O)n1cc(-c2ccnc3[nH]c(=O)[nH]c23)cn1)c1ccccc1 (centres unmarked) [Example 1063] ; returns value.
Response: < 0.5 µM

Query: // repeat for CC(O)(c1ccc(-n2cc(-c3ccnc4[nH]cnc34)cn2)nc1)C(F)(F)F (centres unmarked) [Example 1125] and report
Response: 0.023 µM

Query: // repeat for FC(F)(F)C(CN1CCOCC1)c1ccc(-n2cc(-c3ccnc4[nH]cnc34)cn2)nc1 (centres unmarked) [Example 1206] and report
Response: > 0.1 µM

Query: // repeat for O=C1Cc2c(-c3cnn(C(=O)NCC(F)(F)F)c3)ccnc2N1 [Example 1045] and report
Response: > 1 µM

Query: // repeat for OC(c1ccc(-n2cc(-c3ccnc4[nH]cnc34)cn2)cn1)C(F)(F)F (centres unmarked) [Example 1173] and report
Response: < 0.1 µM
